The reported measurements were obtained from patent US20260216198A1.

# system: GPR35 (Homo sapiens, UniProt Q9HC97)
# Sequence (Q9HC97 whole entry): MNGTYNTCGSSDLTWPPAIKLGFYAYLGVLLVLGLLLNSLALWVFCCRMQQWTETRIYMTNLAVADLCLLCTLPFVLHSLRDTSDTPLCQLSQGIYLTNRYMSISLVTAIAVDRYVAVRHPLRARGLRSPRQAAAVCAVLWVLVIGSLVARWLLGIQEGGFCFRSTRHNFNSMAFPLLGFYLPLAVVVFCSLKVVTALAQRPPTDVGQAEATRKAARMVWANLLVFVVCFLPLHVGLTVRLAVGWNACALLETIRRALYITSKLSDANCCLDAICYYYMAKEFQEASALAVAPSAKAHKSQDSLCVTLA
# test.summary: cellular GPR35 phospho-ERK HTRF assay (inhibition of lodoxamide-induced phospho-ERK signal)
# details: GPR35-CHO-K1-mt aequorin-Gα16 cell line; agonist lodoxamide at EC80; read-out: Activity Group (IC50, inhibition of GPR35 agonist-induced phospho-ERK signal)
pIC50: −log10 of the molar value.
Below is a list of entries, each paired with its recorded pIC50 value.
property.measured: pIC50

INSERT INTO assay_data (compound, result) VALUES
  ('CNc1ncc(-c2cccc(C(=O)Nc3ccc(OCCc4ccccc4)cc3)c2)cc1C(=O)O', '> 6.00'),
  ('Cc1ncc(-c2cc(C(=O)Nc3ccc(COCc4ccccc4)cc3)c(F)cn2)cc1C(=O)O', '> 6.00'),
  ('Cc1ncc(-c2cccc(C(=O)Nc3ccc(COC(C)c4ccccc4)cc3)c2)cc1C(=O)O (stereo not shown)', '> 6.00'),
  ('Cc1ncc(-c2ccc(F)c(C(=O)Nc3ccc(OCC4CC4)c(F)c3)c2)cc1C(=O)O', '> 6.00'),
  ('Cc1ncc(-c2cccc(C(=O)Nc3ccc(OCCc4ccccc4)cc3)c2)cc1C(=O)O', '> 6.00'),
  ('Cc1ncc(-c2cc(C(=O)Nc3ccc(COCc4ccccc4)cc3)ccn2)cc1C(=O)O', '> 6.00'),
  ('Cc1ncc(-c2cc(C(=O)Nc3ccc(OCC4CC4)c(F)c3)ccn2)cc1C(=O)O', '5.00 to 6.00'),
  ('Cc1ccc(S(=O)(=O)Cc2ccc(NC(=O)c3cccc(-c4cnc(C)c(C(=O)O)c4)c3)cc2)cn1', '5.00 to 6.00'),
  ('Cc1ncc(-c2cccc(C(=O)Nc3ccc(CS(=O)(=O)Cc4ccccc4)cc3)c2)cc1C(=O)O', '5.00 to 6.00'),
  ('COc1ccc(S(=O)(=O)Cc2ccc(NC(=O)c3cccc(-c4cnc(C)c(C(=O)O)c4)c3)cc2)cc1', '5.00 to 6.00'),
  ('Cc1ccc(C(=O)O)nc1-c1cccc(C(=O)Nc2ccc(OCCc3ccccc3)cc2)c1', '> 6.00'),
  ('NC(=O)c1ncc(-c2cccc(C(=O)Nc3ccc(OCCc4ccccc4)cc3)c2)cc1C(=O)O', '5.00 to 6.00'),
  ('Cc1ccc(-c2cnc(C)c(C(=O)O)c2)cc1C(=O)Nc1ccc(COCc2ccccc2)cc1', '5.00 to 6.00'),
  ('Cc1ncc(-c2ccc(F)c(C(=O)Nc3ccc(OC(C)C4CC4)c(C#N)c3)c2)cc1C(=O)O (stereo not shown)', '5.00 to 6.00'),
  ('O=C(O)c1cncc(-c2cccc(C(=O)Nc3ccc(OCCc4ccccc4)cc3)c2)c1', '> 6.00'),
  ('Cc1ncc(-c2cccc(C(=O)Nc3ccc(COC4CC4)cc3)c2)cc1C(=O)O', '5.00 to 6.00');

---

# system: GPR35 (Homo sapiens, UniProt Q9HC97)
# Construct: expressed in transfected cells; host or cells: CHO-K1 cells co-expressing mitochondrial aequorin and Gα16
# test.summary: cellular GPR35 phospho-ERK HTRF assay (inhibition of lodoxamide-induced phospho-ERK signal)
# Type: cell-based
# details: GPR35-CHO-K1-mt aequorin-Gα16 cell line; agonist lodoxamide at EC80; read-out: Activity Group (IC50, inhibition of GPR35 agonist-induced phospho-ERK signal)
pIC50: −log10 of the molar value.
Entries and their pIC50
property.measured: pIC50

INSERT INTO assay_data (compound, property_measured, result) VALUES
  ('Cc1ccc(S(=O)(=O)Cc2ccc(NC(=O)c3cccc(-c4cnc(C)c(C(=O)O)c4)c3)cc2)cc1 [Example 58]', 'pIC50', '> 6.00'),
  ('Cc1ncc(-c2cccc(C(=O)Nc3ccc(COCc4ccccn4)c(F)c3)c2)cc1C(=O)O [Example 62]', 'pIC50', '5.00 to 6.00'),
  ('Cc1ncc(-c2cc(C(=O)Nc3ccc(COC4CC4)c(F)c3)ccn2)cc1C(=O)O [Example 78]', 'pIC50', '5.00 to 6.00'),
  ('O=C(Nc1ccc(OCCc2ccccc2)cc1)c1cccc(-c2nccc(C(=O)O)n2)c1 [Example 22]', 'pIC50', '> 6.00'),
  ('Cc1ncc(-c2cccc(C(=O)Nc3ccc(COCC4CC4)cc3)c2)cc1C(=O)O [Example 44]', 'pIC50', '5.00 to 6.00'),
  ('Cc1ncc(-c2nccc(C(=O)Nc3ccc(OCCc4ccccc4)cc3)n2)cc1C(=O)O [Example 55]', 'pIC50', '5.00 to 6.00'),
  ('Cc1ncc(-c2cc(C(=O)Nc3ccc(OCCc4ccccc4)cc3)ncn2)cc1C(=O)O [Example 69]', 'pIC50', '> 6.00'),
  ('O=C(Nc1ccc(OCCc2ccccc2)cc1)c1cccc(-c2cnnc(C(=O)O)c2)c1 [Example 28]', 'pIC50', '> 6.00');

---

# system: GPR35 (Homo sapiens)
# Construct: expressed in transfected cells; host or cells: CHO-K1 cells co-expressing mitochondrial aequorin and Gα16
# test.summary: cellular GPR35 phospho-ERK HTRF assay (inhibition of lodoxamide-induced phospho-ERK signal)
# Type: cell-based
# details: GPR35-CHO-K1-mt aequorin-Gα16 cell line; agonist lodoxamide at EC80; read-out: Activity Group (IC50, inhibition of GPR35 agonist-induced phospho-ERK signal)
property.measured: IC50

INSERT INTO measurements (molecule, result) VALUES
  ('Cc1ncc(-c2ccc(F)c(C(=O)Nc3ccc(COCC4CC4)c(F)c3)c2)cc1C(=O)O', '< 1000 nM'),
  ('O=C(Nc1ccc(OCCc2ccccc2)cc1)c1cccc(-c2c[nH]c(=O)c(C(=O)O)c2)c1', '< 1000 nM'),
  ('Cc1ncc(-c2ccc(F)c(C(=O)Nc3ccc(OC(C)C4CC4)c(F)c3)c2)cc1C(=O)O (stereo not shown)', '< 1000 nM'),
  ('Cc1ncc(-c2cccc(C(=O)Nc3ccc(COCc4ccccc4)c(F)c3)c2)cc1C(=O)O', '< 1000 nM'),
  ('Cc1ncc(-c2cccc(C(=O)Nc3ccc(CS(=O)(=O)c4ccccc4Cl)cc3)c2)cc1C(=O)O', '1000 to 10000 nM'),
  ('Nc1ccc(-c2cccc(C(=O)Nc3ccc(OCCc4ccccc4)cc3)c2)cc1C(=O)O', '< 1000 nM'),
  ('Cc1ncc(-c2cccc(C(=O)Nc3cnn(CCc4ccccc4)c3)c2)cc1C(=O)O', '< 1000 nM'),
  ('O=C(Nc1ccc(OCCc2ccccc2)cc1)c1cccc(-c2ccnc(C(=O)O)n2)c1', '< 1000 nM'),
  ('CN(C)c1ncc(-c2cccc(C(=O)Nc3ccc(OCCc4ccccc4)cc3)c2)cc1C(=O)O', '< 1000 nM'),
  ('O=C(O)c1ccc(-c2cccc(C(=O)Nc3ccc(OCCc4ccccc4)cc3)c2)nc1', '< 1000 nM'),
  ('COc1ccc(C(=O)Nc2ccc(COCc3ccccc3)cc2)cc1-c1cnc(C)c(C(=O)O)c1', '< 1000 nM'),
  ('Nc1ncc(-c2cccc(C(=O)Nc3ccc(OCCc4ccccc4)cc3)c2)cc1C(=O)O', '< 1000 nM'),
  ('COc1ccc(COCc2ccc(NC(=O)c3cccc(-c4cnc(C)c(C(=O)O)c4)c3)cc2F)cc1', '< 1000 nM'),
  ('O=C(Nc1ccc(COCC2CC2)cc1)c1cccc(-c2cnc(Cl)c(C(=O)O)c2)c1', '1000 to 10000 nM'),
  ('Cc1ncc(-c2cccc(C(=O)Nc3ccc(CS(=O)(=O)c4cccc(Cl)c4)cc3)c2)cc1C(=O)O', '1000 to 10000 nM'),
  ('CSc1ncc(C(=O)Nc2ccc(OCCc3ccccc3)cc2)cc1-c1cnc(C)c(C(=O)O)c1', '1000 to 10000 nM');

---

# system: GPR35 (Homo sapiens)
# test.summary: cellular GPR35 phospho-ERK HTRF assay (inhibition of lodoxamide-induced phospho-ERK signal)
# details: GPR35-CHO-K1-mt aequorin-Gα16 cell line; agonist lodoxamide at EC80; read-out: Activity Group (IC50, inhibition of GPR35 agonist-induced phospho-ERK signal)
Reported IC50 values are given for each entry in this list.
property.measured: IC50

INSERT INTO measurements (structure_notation, property_measured, result) VALUES
  ('O=C(O)c1ccnc(-c2cccc(C(=O)Nc3ccc(OCCc4ccccc4)cc3)c2)c1', 'IC50', '< 1000 nM'),
  ('Cc1ncc(-c2ncc(C(=O)Nc3ccc(COCc4ccccc4)cc3)s2)cc1C(=O)O', 'IC50', '1000 to 10000 nM'),
  ('O=C(Nc1ccc(OCCc2ccccc2)cc1)c1cccc(-c2ccnc(C(=O)O)c2)c1', 'IC50', '1000 to 10000 nM'),
  ('Cc1c(C(=O)O)cncc1-c1cccc(C(=O)Nc2ccc(OCCc3ccccc3)cc2)c1', 'IC50', '1000 to 10000 nM'),
  ('COc1ncc(-c2cccc(C(=O)Nc3ccc(OCCc4ccccc4)cc3)c2)cc1C(=O)O', 'IC50', '< 1000 nM'),
  ('Cc1ncc(-c2cc(C(=O)Nc3ccc(OCC4CC4)cc3)c(F)cn2)cc1C(=O)O', 'IC50', '1000 to 10000 nM'),
  ('Cc1ncc(C(=O)O)cc1-c1cccc(C(=O)Nc2ccc(OCCc3ccccc3)cc2)c1', 'IC50', '1000 to 10000 nM'),
  ('O=C(Nc1ccc(OCCc2ccccc2)cc1)c1cccc(-c2cnc(Cl)c(C(=O)O)c2)c1', 'IC50', '< 1000 nM'),
  ('COc1cc(COCc2ccccc2)ccc1NC(=O)c1cccc(-c2cnc(C)c(C(=O)O)c2)c1', 'IC50', '1000 to 10000 nM'),
  ('O=C(Nc1cccc(-c2cccc(C(=O)O)n2)c1)c1ccc(OCCCCc2ccccc2)cc1', 'IC50', '< 1000 nM'),
  ('O=C(O)c1cnnc(-c2cccc(C(=O)Nc3ccc(COCc4ccccc4)cc3)c2)c1', 'IC50', '< 1000 nM'),
  ('O=C(Nc1ccc(OCCc2ccccc2)cc1)c1cccc(-c2ccc(O)c(C(=O)O)c2)c1', 'IC50', '< 1000 nM'),
  ('Cc1ccc(-c2cccc(C(=O)Nc3ccc(OCCc4ccccc4)cc3)c2)nc1C(=O)O', 'IC50', '< 1000 nM'),
  ('O=C(Nc1ccc(OCCc2ccccc2)cc1)c1cccc(-c2cnc(C(F)(F)F)c(C(=O)O)c2)c1', 'IC50', '< 1000 nM'),
  ('COc1ccc(-c2cnc(C)c(C(=O)O)c2)cc1C(=O)Nc1ccc(COCc2ccccc2)cc1', 'IC50', '< 1000 nM'),
  ('Nc1ncc(-c2cccc(C(=O)Nc3ccc(OCCc4ccccc4)cc3)c2)nc1C(=O)O', 'IC50', '< 1000 nM');
